Known pIC50 of a selection of compounds
- subjectOfTest: IDH1-R132 homodimer enzyme (R132H) (Homo sapiens (Human), UniProt O75874, R132H)
- Sequence (O75874 whole entry R132H): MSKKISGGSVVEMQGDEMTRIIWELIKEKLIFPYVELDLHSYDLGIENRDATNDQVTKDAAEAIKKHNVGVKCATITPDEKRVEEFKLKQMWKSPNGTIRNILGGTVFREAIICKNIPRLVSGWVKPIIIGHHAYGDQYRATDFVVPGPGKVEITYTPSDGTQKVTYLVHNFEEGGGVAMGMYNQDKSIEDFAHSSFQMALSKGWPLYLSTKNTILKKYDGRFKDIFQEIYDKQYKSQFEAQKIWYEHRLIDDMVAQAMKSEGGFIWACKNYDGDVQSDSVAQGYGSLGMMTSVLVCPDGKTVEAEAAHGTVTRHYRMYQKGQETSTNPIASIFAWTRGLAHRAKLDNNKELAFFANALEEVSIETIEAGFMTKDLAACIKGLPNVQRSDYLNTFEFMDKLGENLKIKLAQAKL
- experimentalProtocol: In vitro assay IDH1-R132H homodimer, NADPH depletion assay
pIC50: −log10 of the molar value.

C[C@@H](Nc1nc(N[C@H](C)C2CC2)nc(-c2cccc(C(F)(F)F)n2)n1)c1ccccc1 [Compound 22] | 7.00 to 7.30
CC(O)CNc1nc(N[C@H](C)C2CC2)nc(-c2cccc(C(F)(F)F)n2)n1 (some centres unmarked) [Compound 12] | < 6.00
COc1ccc(F)c(-c2nc(NC(C)C)nc(NC(C)(C)C#N)n2)c1 [Compound 32] | < 6.00
CC(Nc1nc(N[C@H](C)C2CC2)nc(-c2cccc(C(F)(F)F)n2)n1)c1cccc(F)c1 (some centres unmarked) [Compound 28] | 7.00 to 7.30
C[C@@H](Nc1nc(NCc2ccccn2)nc(-c2cccc(C(F)(F)F)n2)n1)C1CC1 [Compound 24] | < 6.00
CCCC(C)Nc1nc(N[C@H](C)C2CC2)nc(-c2cccc(C(F)(F)F)n2)n1 (some centres unmarked) [Compound 39] | > 7.30
CC(O)CNc1nc(NCC(C)O)nc(-c2cccc(C(F)(F)F)n2)n1 (centres unmarked) [Compound 14] | < 6.00
C[C@@H](Nc1nc(N[C@H](C)C2CC2)nc(-c2cccc(C(F)(F)F)n2)n1)C1CC1 [Compound 2] | > 7.30
FC(F)(F)c1cccc(-c2nc(NC3CCC3)nc(NC3CCC3)n2)n1 [Compound 9] | 7.00 to 7.30
FC1(F)CCC(Nc2nc(NC3CCC(F)(F)CC3)nc(-c3cccc(C(F)(F)F)n3)n2)CC1 [Compound 41] | 7.00 to 7.30

Recorded pIC50 of C[C@H](Nc1nc(N[C@H](C)C2CC2)nc(-c2cccc(C(F)(F)F)n2)n1)C1CC1 [Compound 34] , please.
> 7.30

Recorded pIC50 of C[C@@H](Nc1nc(N[C@H](C)C2CC2)nc(-c2ccccc2F)n1)C1CC1 [Compound 6] , please.
< 6.00

Recorded pIC50 of COCC(C)Nc1nc(N[C@H](C)C2CC2)nc(-c2cccc(C(F)(F)F)n2)n1 (some centres unmarked) [Compound 44] , please.
6.00 to 7.00

* * *

- subjectOfTest: IDH1-R132H homodimer enzyme (Homo sapiens (Human), UniProt O75874, R132H)
- experimentalProtocol: In vitro assay IDH1-R132H homodimer, NADPH depletion assay with NADPH/NADP preincubation
- particulars: 5 μM NADPH and 37.5 μM NADP
pIC50: −log10 of the molar value.
Known pIC50 of a selection of molecules

// solved cases for pIC50 follow
N#Cc1cc(F)cc(Nc2nc(NC3CC(F)(F)C3)nc(-c3cccc(C(F)(F)F)n3)n2)c1 | > 7.30
CC(F)(F)c1cccc(-c2nc(Nc3ccnc(C4(C#N)CC4)c3)nc(NC3CCC(F)(F)CC3)n2)n1 | 6.00 to 7.00
FC(F)c1ccnc(-c2nc(NC3CCC(F)(F)CC3)nc(NC3CCC(F)(F)CC3)n2)n1 | < 6.00
CC(Nc1nc(Nc2ccnc(-c3ccccc3)c2)nc(-c2cccc(C(F)(F)F)n2)n1)C(F)(F)F (stereo not shown) | 7.00 to 7.30
CC(C)(O)CNc1nc(NC2CCC(F)(F)CC2)nc(-c2cccc(C(F)(F)F)n2)n1 | < 6.00

Recorded pIC50 of FC1(F)CCC(Nc2nc(NC3CCC(F)(F)C3)nc(-c3cccc(OC(F)(F)F)n3)n2)C1 (stereo not shown) , please.
< 6.00

Recorded pIC50 of `FC1(F)CCC(Nc2nc(NC3CCC(F)(F)CC3)nc(-c3ccnc(C(F)(F)F)n3)n2)CC1` , please.
< 6.00
